The following molecules are listed with their measured growth inhibition values.
TEST_PROTOCOL: NCI Yeast Anticancer Drug Screen. Data for the cln2 rad14 strain (AID 165);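 note: 0% = growth equal to vehicle treated cultures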
STATED_CONDITIONS: S. cerevisiae cln2 rad14 strain, at 50.0 µM, stronger effect = higher value
Compounds without any hit were thinned out: in the full panel of roughly 79,000, 15% have a hit. Where a SMILES comes first, the peptide text is derived from it. [ ]: non-standard residue; d: D form. The star is where a group is joined. ξ: configuration not given here. Cbz = O=C(OCc1ccccc1)*; ξT = CC(O)C(N)C(=O)O
READOUT_TYPE: growth inhibition (%)

INSERT INTO results (molecule, value_units, measured_result) VALUES
  ('COc1ccc(C(=O)/C=C/c2ccncc2)cc1OC', '%', 5.55),
  ('COc1cc(C(c2ccc(N(Cc3ccccc3)Cc3ccccc3)cc2NC(C)=O)c2ccc(N(Cc3ccccc3)Cc3ccccc3)cc2NC(C)=O)ccc1O', '%', -8.2),
  ('CCOC(=O)c1ccc(CCCN)cc1', '%', -28.2),
  ('O=C1c2ccccc2C(=O)N1CNc1ccccc1S', '%', 28.4),
  ('CC1(C)C=Cc2c(ccc(C(=O)Cc3ccccc3)c2O)O1', '%', -8.1),
  ('CC(C)(O)CCc1ccccc1', '%', 14.8),
  ('CC(Cl)CN1c2ccccc2Sc2ccc(Cl)cc21 (stereo not drawn)', '%', 23),
  ('O=C(CN1CCCc2ccccc21)c1ccc(Cl)cc1', '%', 9.2),
  ('CCC(CCc1ccc(OC)c(OC)c1)C(=O)O (stereo not drawn)', '%', -9.85),
  ('NC(=O)Cc1cc2c(cc1CO)OCO2', '%', 7.9),
  ('Clc1ccc2c(N3CCC(CCC4CCN(c5ncnc6cc(Cl)ccc56)CC4)CC3)ncnc2c1', '%', -39.4),
  ('O=[N+]([O-])c1cccc(C2=NON(c3ncccn3)C3N=CC=CN23)c1 (stereo not drawn)', '%', -4.9),
  ('CC(C)(CCN(CC(=O)O)CC(=O)O)[N+](=O)[O-]', '%', -69.8),
  ('O=c1[nH]c2cc(Cl)c([N+](=O)[O-])cc2c2ccccc12', '%', -42),
  ('CCN(CC)CCOC(=O)c1ccc(N=Nc2ccc(O)cc2)cc1', '%', -6.25),
  ('O=C(Nc1ccsc1)c1ccccc1', '%', -58.2),
  ('NC(CCC1CCCCC1)C(=O)O (stereo not drawn)', '%', -3.65),
  ('CC[n+]1ccnc2ccccc21', '%', -7.9),
  ('COc1cccc(-c2nnc(-c3cccc(OC)c3)o2)c1', '%', 1.95),
  ('CC(O)C(NC(=O)CNC(=O)CNC(=O)OCc1ccccc1)C(=O)O (stereo not drawn) (Cbz-Gly-Gly-[ξT]-OH)', '%', 16.4),
  ('CCOC(=O)C1SC(=Nc2ccc(Cl)c(Cl)c2)N=C1C (stereo not drawn)', '%', 5.9),
  ('CC(CC(=N)N)NC(=O)C1CCC(N)=N1 (stereo not drawn)', '%', -1.6),
  ('CC(=O)OCC1(C)C(O)CCC2(C)C1CCC1CC3CC12CCC3(O)CO (stereo not drawn)', '%', 2.95);
